Reported Ki values for a set of molecules
Target: StITPK1 (Solanum tuberosum, UniProt A4H2J0)
Sequence (A4H2J0 entry or part of it): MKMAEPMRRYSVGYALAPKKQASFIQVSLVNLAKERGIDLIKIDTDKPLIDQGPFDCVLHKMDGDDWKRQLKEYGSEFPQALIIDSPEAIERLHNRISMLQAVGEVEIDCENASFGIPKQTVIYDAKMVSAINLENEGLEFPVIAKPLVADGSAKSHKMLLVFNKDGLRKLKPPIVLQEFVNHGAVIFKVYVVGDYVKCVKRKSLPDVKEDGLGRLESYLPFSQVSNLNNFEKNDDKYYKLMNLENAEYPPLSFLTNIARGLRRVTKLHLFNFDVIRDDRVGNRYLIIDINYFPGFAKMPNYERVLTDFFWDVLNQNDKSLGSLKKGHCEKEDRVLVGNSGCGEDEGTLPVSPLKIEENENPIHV
Test: Fluorescence polarization displacement of 2-FAM-InsP5
Format: binding
Conditions: Ki for displacement of 2-FAM-InsP5, 2 nM 2-FAM-InsP5, 50 nM StITPK1, pH 6.5; Cheng-Prusoff with Kd 48 nM

molecule: O=P(O)(O)OC1C(OP(=O)(O)O)C(OP(=O)(O)O)C(OP(=O)(O)O)C(OP(=O)(O)O)C1OP(=O)(O)O [D-chiro-InsP6]
units.symbol: nM
Ki: 154
//
molecule: O=P(O)(O)OC1C(OP(=O)(O)O)C(OP(=O)(O)O)C(OP(=O)(O)O)C(OP(=O)(O)O)C1OP(=O)(O)O (stereo not drawn) [neo-InsP6]
units.symbol: nM
Ki: 111
//
molecule: O=C(CP(=O)(O)O)NC1C(OP(=O)(O)O)C(OP(=O)(O)O)C(OP(=O)(O)O)C(OP(=O)(O)O)C1OP(=O)(O)O (stereo not drawn) [5-PCH2AM-InsP5]
units.symbol: nM
Ki: 889
//
molecule: O=C(NC1C(OP(=O)(O)O)C(OP(=O)(O)O)C(OP(=O)(O)O)C(OP(=O)(O)O)C1OP(=O)(O)O)C(F)(F)P(=O)(O)O (stereo not drawn) [5-PCF2AM-InsP5]
units.symbol: nM
Ki: 106
//
molecule: O=P(O)(O)O[C@H]1[C@H](OP(=O)(O)O)[C@@H](OP(=O)(O)O)[C@H](OP(=O)(O)O)[C@@H](OP(=O)(O)O)[C@H]1OP(=O)(O)O [myo-InsP6]
units.symbol: nM
Ki: 126
//
molecule: O=P(O)(O)OC1C(OP(=O)(O)O)C(OP(=O)(O)O)C(OP(=O)(O)O)C(OP(=O)(O)O)C1OP(=O)(O)O (stereo not drawn) [scyllo-InsP6]
units.symbol: nM
Ki: 423

Values compiled from paper PMC10765375.
